# protocol: ESI positive response factor (isotope-corrected peak area per molar concentration) in SFC/ESI/HRMS (area units per M); higher = higher ionization efficiency;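 further: standards in acetonitrile/water run in triplicate on a zwitterionic HILIC column, CO2–methanol gradient containing 20 mmol/L ammonium acetate, postcolumn makeup flow, Orbitrap full-scan detection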
# conditionInfo: 0.35 µM
For each entry below, report its ESI positive response factor value.

Data request: Entry under review: CCCCC(=O)N(Cc1ccc(-c2ccccc2-c2nn[nH]n2)cc1)C(C(=O)O)C(C)C (stereo not given) . Reported ESI positive response factor?
Data returned: 6.09e+16

Data request: Please look up its ESI positive response factor: CC(O)CN(CCO)CCO (stereo not given) [1-[N,N-Bis(2-hydroxyethyl)amino]-2-propanol]
Data returned: 2.94e+17

Data request: Need ESI positive response factor, item "c1ccc(CC2=NCCN2)cc1"
Data returned: 5.75e+15

Data request: Item "CN(C)CCC=C1c2ccccc2CCc2ccccc21" has what recorded ESI positive response factor?
Data returned: 4.54e+17

Data request: What measured ESI positive response factor goes with "O=C1CCCN1" ?
Data returned: 8.52e+15

Data request: What measured ESI positive response factor goes with Cc1cc2nc3c(=O)[nH]c(=O)nc-3n(CC(O)C(O)C(O)CO)c2cc1C (stereo not given) ?
Data returned: 3.31e+15

Data request: Look up ESI positive response factor for this molecule: "OCCN(CCO)CCO"
Data returned: 8.66e+16

Data request: Form field: reported ESI positive response factor of "CC1(C)CC(O)CC(C)(C)N1"
Data returned: 1.58e+17

Data request: Look at this molecule and give its reported ESI positive response factor. "CNC(=O)Oc1cccc2c1OC(C)(C)C2"
Data returned: 9.93e+16

Data request: Consider the molecule NCC1CCC(C(=O)O)CC1 (stereo not given) and give its measured ESI positive response factor.
Data returned: 6.32e+16
